Ref: ChEMBL document CHEMBL2375302

- method notes: Toxicity against brine shrimp larvae assessed as mortality at 500 ug/mL after 24 hrs by binocular microscopic analysis relative to control
- Type: organism-based
- experimental parameters: artemia salina, in vivo
endpoint: mortality at 24 h, 500 ug/mL

> print(dat)
                                    compound                      endpoint  recorded.measurement
 1  CCOC(=O)C1C(=O)N=C2SC(S(N)(=O)=O)=NN2C1c1ccc(OC)c(OC)c1 (stereo not given)  mortality at 24 h, 500 ug/mL                 83.3%
 2  CCOC(=O)C1C(=O)N=C2SC(S(N)(=O)=O)=NN2C1c1ccc(N(C)C)cc1 (stereo not given)  mortality at 24 h, 500 ug/mL                 93.3%
 3                   O=c1[nH]cc(F)c(=O)[nH]1  mortality at 24 h, 500 ug/mL                   90%
 4  Cc1ccc(/N=N/c2c(N)n3nc(S(N)(=O)=O)sc3nc2=O)cc1  mortality at 24 h, 500 ug/mL                  100%
 5  NS(=O)(=O)C1=NN2C(=O)c3ccccc3NC(c3ccsc3)/N=C\2S1 (stereo not given)  mortality at 24 h, 500 ug/mL                 76.6%
 6  Nc1c(/N=N/c2ccccc2)c(=O)nc2sc(S(N)(=O)=O)nn12  mortality at 24 h, 500 ug/mL                   90%
 7  COc1ccc2c(c1)CCC1=C2N=C2SC(S(N)(=O)=O)=NN2C1c1ccc(Cl)cc1 (stereo not given)  mortality at 24 h, 500 ug/mL                   80%
 8  COc1ccc2c(c1)CCC1=C2N=C2SC(S(N)(=O)=O)=NN2C1c1ccc(OC)c(OC)c1 (stereo not given)  mortality at 24 h, 500 ug/mL                 76.6%
 9  COc1ccc(C2C(C#N)C(=O)N=C3SC(S(N)(=O)=O)=NN32)cc1OC (stereo not given)  mortality at 24 h, 500 ug/mL                   60%
10            N#Cc1cnc2sc(S(N)(=O)=O)nn2c1=N  mortality at 24 h, 500 ug/mL                   90%
